Reference for the values: patent US7196110B2

- test_target: PDGF-receptor beta enzyme comprising the tyrosine kinase domain (Homo sapiens, UniProt P09619)
- Construct: from amino acid 545 to 1106 of GenBank Access NO: AAA36427
- Sequence (P09619 545-1106): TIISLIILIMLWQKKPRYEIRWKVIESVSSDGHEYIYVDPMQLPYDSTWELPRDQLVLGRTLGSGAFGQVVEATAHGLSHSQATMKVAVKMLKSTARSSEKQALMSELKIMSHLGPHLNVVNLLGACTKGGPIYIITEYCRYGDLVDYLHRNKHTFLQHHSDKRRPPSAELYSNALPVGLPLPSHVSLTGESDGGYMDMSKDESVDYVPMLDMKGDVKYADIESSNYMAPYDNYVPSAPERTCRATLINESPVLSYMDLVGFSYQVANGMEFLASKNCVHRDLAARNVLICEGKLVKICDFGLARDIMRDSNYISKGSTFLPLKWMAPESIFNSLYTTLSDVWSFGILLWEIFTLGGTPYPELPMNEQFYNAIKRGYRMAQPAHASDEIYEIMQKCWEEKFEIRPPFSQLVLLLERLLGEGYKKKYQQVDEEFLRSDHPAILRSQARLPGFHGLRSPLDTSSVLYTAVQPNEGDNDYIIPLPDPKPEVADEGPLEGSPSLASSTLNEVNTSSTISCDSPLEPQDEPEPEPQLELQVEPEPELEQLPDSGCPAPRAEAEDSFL
- method: Inhibition of PDGF-receptor kinase activity (cell-free, PLC1 peptide, 33P Flashplate)
- Type: biochemical
- assay_conditions: read-out: IC50 (μM) on PDGF-R kinase activity
measured_property: IC50 (µM)

compound | IC50 [µM]
COc1cc2c(c3nc(C)oc13)CC1C(Nc3cccc(F)c3)=NN=C21 (stereo not drawn) | 0.0051
COc1cc2c(cc1OC)-c1n[nH]c(NCc3ccccc3Br)c1C2 | 0.00213

P: COc1cc2c(cc1OC)-c1n[nH]c(Nc3ccc(Br)cn3)c1C2
Q: COc1cc2c(cc1OC)C(C)c1c-2n[nH]c1NCc1c(Cl)cccc1Cl (single isomer, unassigned)
R: COc1cc2c(cc1OC)-c1n[nH]c(Nc3ncccc3C)c1C2
S: COc1cc2c(c3nc(C)oc13)Cc1c(NCc3ccccc3F)n[nH]c1-2
T: COc1cc2c(cc1OC)-c1n[nH]c(Nc3cccc(OC(C)C)c3)c1C2
Request: Arrange by IC50, high to low. Write the labels, ordered according to the request.
Response: R, P, S, Q, T

a: COc1cc2c(cc1OC)-c1nn(C(=O)NCCOCCOCCO)c(Nc3cccc(F)c3)c1C2
b: COc1cc2c(cc1OC)-c1n[nH]c(Nc3ncc(Br)cc3C)c1C2
Request: Lab note: record which item had the higher IC50, a or b . To answer, give the label that identifies your chosen option.
Response: b
(b: 33.3 µM, a: 2.13 µM)
